Target: endogenous GSTO1 (Homo sapiens, UniProt P78417)
Sequence (P78417 1-241): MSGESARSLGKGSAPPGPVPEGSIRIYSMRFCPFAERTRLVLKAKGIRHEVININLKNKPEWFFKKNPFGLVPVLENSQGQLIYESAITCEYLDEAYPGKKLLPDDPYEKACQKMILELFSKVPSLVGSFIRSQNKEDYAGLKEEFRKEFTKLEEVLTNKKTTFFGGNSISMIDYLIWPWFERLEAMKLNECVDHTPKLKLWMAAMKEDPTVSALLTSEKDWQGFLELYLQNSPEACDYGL
Experiment: In-gel fluorescence competitive CMFDA binding assay, endogenous GSTO1 in HCT116
Settings: 10 µM; inhibition of CMFDA binding, HCT116
Measured parameter: GSTO binding assay (% Inhibition at 10 µM) Endogenous (%)

[[record]]
compound = "O=C(CCl)Nc1ccc(OC(F)F)cc1 [C1-6]"
value_measured = 87.6

[[record]]
compound = "Cc1cc(NC(=O)CCl)ccc1N1CCCC1 [C1-16]"
value_measured = 46.7

[[record]]
compound = "CCN(C(=O)CCl)C1CCS(=O)(=O)C1 (stereo not drawn) [C4-4]"
value_measured = 17.0

[[record]]
compound = "Cn1ccnc1C(NC(=O)CCl)c1ccccc1 (stereo not drawn) [C3-10]"
value_measured = 48.4

[[record]]
compound = "N#CCCN(C(=O)CCl)c1cccc(C(F)(F)F)c1 [C4-2]"
value_measured = 52.8


A. Cc1ccc(CSCCNC(=O)CCl)cc1 [C3-15]
B. CCN1CCC(NC(=O)CCl)CC1 [C2-1]
(Q) # argmax over GSTO binding assay (% Inhibition at 10 µM) Endogenous for candidates A and B In your reply, give the label of the chosen option.
(A) A
(A: 86.9%, B: 45.0%)

###

target: GSTO1 (Homo sapiens); test: GSTO1 substrate assay (reduction of 4-NPG); details: 10 µM
Measured parameter: GSTO substrate assay % Inhibition at 10 µM (%)

Answered cases to consult:
[[record]]
compound = "O=C(CCl)NC1CCN(Cc2ccccc2)CC1 [C2-2]"
value_measured = 90.5

[[record]]
compound = "O=C(CCl)Nc1ccccc1N1CCCC1=O [C1-18]"
value_measured = 3.7

[[record]]
compound = "CCOC(=O)c1c(-c2ccc(OC)c(OC)c2)csc1NC(=O)CCl [C2-12]"
value_measured = 3.4


A. CC1CCN(c2ccc(NC(=O)CCl)cc2)CC1 [C1-19]
B. O=C(CCl)Nc1ccc(OC(F)F)cc1 [C1-6]
C. O=C(CCl)NCC1(N2CCCCC2)CCCCC1 [C3-31]
D. CCCCN(C(=O)CCl)c1c(N)n(CC(C)C)c(=O)[nH]c1=O [C4-19]
E. O=C(CCl)N1CCN(c2ccc(O)cc2)CC1 [C5-4]
(Q) Order field: GSTO substrate assay % Inhibition at 10 µM | Direction: descending (largest first) Lab note: final answer is the ordered label list.
(A) A, E, B, D, C
(A: 61.5%, E: 41.0%, B: 22.7%, D: 11.8%, C: 0.3%)

I. O=C(CCl)NNc1c(Cl)cc(Cl)cc1Cl [C3-17]
II. Cc1cc(C(C)(C)C)cc(C)c1NC(=O)CCl [C1-1]
III. CC(=O)N1CCc2cc(NC(=O)CCl)ccc21 [C1-22]
IV. O=C(CCl)Nc1cc2c(cc1Cl)C(=O)c1ccccc1C2=O [C1-12]
V. CN(CC1COc2ccccc2O1)C(=O)CCl (stereo not shown) [C4-8]
(Q) Sort ascending by GSTO substrate assay % Inhibition at 10 µM. Lab note: final answer is the ordered label list.
(A) IV, II, III, I, V
(IV: 10.4%, II: 16.2%, III: 41.4%, I: 61.9%, V: 97.2%)
